Tested on: peripheral blood mononuclear cells from HIV-1 seronegative individuals
Conditions: seronegative individual C#03; peptide 5 μM
Source text: Step d) is achieved by synthesizing the peptides representing the epitopes of the present invention, followed by ELISPOT assay to detect IFN-γ-producing cells. For the purposes of the present invention, the positivity cutoff value used is ≧30 SFC IFN-γ/10^6 PBMC, calculated based on the levels of responses of HIV-1 seronegative patients […]
For each entry below, report its IFN-γ spots/10^6 PBMC value.
// note: answer is a bare numeric in spots/10^6 PBMC

Q. Give the observed IFN-γ spots/10^6 PBMC of QQLLFIHFRIGCRHSRIG [vpr 3] for peripheral blood mononuclear cells from HIV-1 seronegative individuals.
A. 7

Q. Give the observed IFN-γ spots/10^6 PBMC of EELRSLYNTVATLYCVH [gag 1] for peripheral blood mononuclear cells from HIV-1 seronegative individuals.
A. 0

Q. Give the observed IFN-γ spots/10^6 PBMC of GKIILVAVHVASGYI [pol 3] for peripheral blood mononuclear cells from HIV-1 seronegative individuals.
A. 0

Q. Give the observed IFN-γ spots/10^6 PBMC of EAIIRILQQLLFIHF [vpr 2] for peripheral blood mononuclear cells from HIV-1 seronegative individuals.
A. 15

Q. Give the observed IFN-γ spots/10^6 PBMC of DKELYPLASLRSLFG [gag 4] for peripheral blood mononuclear cells from HIV-1 seronegative individuals.
A. 5

Q. Give the observed IFN-γ spots/10^6 PBMC of KRWIILGLNKIVRMYSPTSI [gag 3] for peripheral blood mononuclear cells from HIV-1 seronegative individuals.
A. 5

Q. Give the observed IFN-γ spots/10^6 PBMC of SELYLYKVVKIEPLGVAP [env 5] for peripheral blood mononuclear cells from HIV-1 seronegative individuals.
A. 5

Q. Give the observed IFN-γ spots/10^6 PBMC of QRPLVTIKIGGQLKE [pol 1] for peripheral blood mononuclear cells from HIV-1 seronegative individuals.
A. 20

Q. Give the observed IFN-γ spots/10^6 PBMC of SLQYLALVALVAPKK [vif 2] for peripheral blood mononuclear cells from HIV-1 seronegative individuals.
A. 2

Q. Give the observed IFN-γ spots/10^6 PBMC of TMLLGMLMICSAA [env 2] for peripheral blood mononuclear cells from HIV-1 seronegative individuals.
A. 5

Q. Give the observed IFN-γ spots/10^6 PBMC of ALFYKLDVVPID [env 3] for peripheral blood mononuclear cells from HIV-1 seronegative individuals.
A. 0

Q. Give the observed IFN-γ spots/10^6 PBMC of ELLKTVRLIKFLYQSNP [rev 1] for peripheral blood mononuclear cells from HIV-1 seronegative individuals.
A. 5

Q. Give the observed IFN-γ spots/10^6 PBMC of VLEWRFDSRLAFHHV [nef 1] for peripheral blood mononuclear cells from HIV-1 seronegative individuals.
A. 7

Q. Give the observed IFN-γ spots/10^6 PBMC of SPEVIPMFSALSE [gag 2] for peripheral blood mononuclear cells from HIV-1 seronegative individuals.
A. 0

Q. Give the observed IFN-γ spots/10^6 PBMC of NTSYRLISCNTSVI [env 4] for peripheral blood mononuclear cells from HIV-1 seronegative individuals.
A. 15

Q. Give the observed IFN-γ spots/10^6 PBMC of VLAIVALVVATIIAI [vpu 1] for peripheral blood mononuclear cells from HIV-1 seronegative individuals.
A. 7

---

Tested on: peripheral blood mononuclear cells from HIV-1 seronegative individuals
Settings: seronegative individual C#04; peptide 5 μM
For each entry below, report its IFN-γ spots/10^6 PBMC value.
// note: answer is a bare numeric in spots/10^6 PBMC

Q. Give a short answer stating reported IFN-γ spots/10^6 PBMC for ALFYKLDVVPID [env 3] .
A. 7

Q. Give a short answer stating reported IFN-γ spots/10^6 PBMC for QQLLFIHFRIGCRHSRIG [vpr 3] .
A. 0

Q. Give a short answer stating reported IFN-γ spots/10^6 PBMC for ELLKTVRLIKFLYQSNP [rev 1] .
A. 7

Q. Give a short answer stating reported IFN-γ spots/10^6 PBMC for TMLLGMLMICSAA [env 2] .
A. 0

Q. Give a short answer stating reported IFN-γ spots/10^6 PBMC for SPEVIPMFSALSE [gag 2] .
A. 0

Q. Give a short answer stating reported IFN-γ spots/10^6 PBMC for NTSYRLISCNTSVI [env 4] .
A. 2

Q. Give a short answer stating reported IFN-γ spots/10^6 PBMC for EAIIRILQQLLFIHF [vpr 2] .
A. 0

Q. Give a short answer stating reported IFN-γ spots/10^6 PBMC for QRPLVTIKIGGQLKE [pol 1] .
A. 12

Q. Give a short answer stating reported IFN-γ spots/10^6 PBMC for KRWIILGLNKIVRMYSPTSI [gag 3] .
A. 12

Q. Give a short answer stating reported IFN-γ spots/10^6 PBMC for SLQYLALVALVAPKK [vif 2] .
A. 0

Q. Give a short answer stating reported IFN-γ spots/10^6 PBMC for VLAIVALVVATIIAI [vpu 1] .
A. 7

Q. Give a short answer stating reported IFN-γ spots/10^6 PBMC for VLEWRFDSRLAFHHV [nef 1] .
A. 12

Q. Give a short answer stating reported IFN-γ spots/10^6 PBMC for EELRSLYNTVATLYCVH [gag 1] .
A. 2

Q. Give a short answer stating reported IFN-γ spots/10^6 PBMC for SELYLYKVVKIEPLGVAP [env 5] .
A. 0

Q. Give a short answer stating reported IFN-γ spots/10^6 PBMC for GKIILVAVHVASGYI [pol 3] .
A. 0

Q. Give a short answer stating reported IFN-γ spots/10^6 PBMC for DKELYPLASLRSLFG [gag 4] .
A. 12
